# TARGET: human ether-à-go-go-related gene (hERG) potassium channel (human, UniProt Q12809)
# Sequence (Q12809 whole entry, looked up): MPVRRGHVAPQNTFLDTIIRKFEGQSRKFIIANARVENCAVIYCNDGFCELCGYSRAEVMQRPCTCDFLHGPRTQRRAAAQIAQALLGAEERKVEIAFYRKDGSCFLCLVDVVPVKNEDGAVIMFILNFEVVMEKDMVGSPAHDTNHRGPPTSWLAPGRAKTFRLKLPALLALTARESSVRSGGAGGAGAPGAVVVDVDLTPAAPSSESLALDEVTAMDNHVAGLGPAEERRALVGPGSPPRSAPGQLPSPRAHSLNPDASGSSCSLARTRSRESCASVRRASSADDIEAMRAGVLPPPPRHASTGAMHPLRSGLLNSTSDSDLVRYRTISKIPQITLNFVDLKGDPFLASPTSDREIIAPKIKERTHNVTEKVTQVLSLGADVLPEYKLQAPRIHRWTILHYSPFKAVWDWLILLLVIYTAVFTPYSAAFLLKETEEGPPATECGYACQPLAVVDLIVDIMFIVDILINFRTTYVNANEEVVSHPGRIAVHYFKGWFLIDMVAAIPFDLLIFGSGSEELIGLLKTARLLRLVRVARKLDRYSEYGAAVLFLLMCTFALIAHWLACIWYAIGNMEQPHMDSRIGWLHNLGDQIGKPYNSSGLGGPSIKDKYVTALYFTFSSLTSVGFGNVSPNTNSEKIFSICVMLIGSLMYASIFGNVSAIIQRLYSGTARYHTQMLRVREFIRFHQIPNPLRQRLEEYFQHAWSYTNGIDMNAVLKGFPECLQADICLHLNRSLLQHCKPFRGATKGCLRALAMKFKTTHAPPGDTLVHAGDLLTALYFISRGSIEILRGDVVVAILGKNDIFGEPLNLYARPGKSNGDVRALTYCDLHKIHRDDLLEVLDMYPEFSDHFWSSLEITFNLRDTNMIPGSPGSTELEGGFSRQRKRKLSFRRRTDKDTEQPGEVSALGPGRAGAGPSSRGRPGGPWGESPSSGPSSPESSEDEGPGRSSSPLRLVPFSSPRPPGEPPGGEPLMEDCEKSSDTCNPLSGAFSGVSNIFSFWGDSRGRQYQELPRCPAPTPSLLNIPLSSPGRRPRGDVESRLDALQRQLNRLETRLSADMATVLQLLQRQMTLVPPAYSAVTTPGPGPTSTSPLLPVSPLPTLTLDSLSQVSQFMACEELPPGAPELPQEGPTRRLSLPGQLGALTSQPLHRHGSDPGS
# TEST_NAME: primary screen, population patch clamp on CHO cells stably expressing hERG; higher = less effect of the substance
Out of some 310,000 compounds screened, about 14,000 (4.5%) showed an effect of 50% or more. The effect is printed as a negative number. The sample holds strong results, similar compounds and a random draw of the others, so the mix is not that of the screen.
# hERG current change (%, negative = inhibition) at 10uM annotations
Respond with the bare value in %.

# count of solved cases: 5
INSERT INTO measurements (compound, reading) VALUES
  ('Cc1ccccc1CN1C[C@@H]2C[C@@H](c3cn[nH]c3-c3ccc(F)cc3)N3CCC[C@@]23C1=O', -52.2),
  ('COc1ccc(C(=O)Cn2nnc(-c3ccccc3NC(=O)C3CCCCC3)n2)cc1', 2.23),
  ('COc1ccc(-c2[nH]ncc2[C@@H]2C[C@H]3CN(Cc4ccccc4C)C(=O)[C@]34CCCN24)cc1', -51.7),
  ('O=C1N/C(=N\N=C\c2ccco2)SC1Cc1ccc(F)cc1 (stereo not drawn)', 14),
  ('COc1ccc(N2CCN(S(=O)(=O)c3ccc4c(c3)NC(=O)C(C)S4)CC2)cc1 (stereo not drawn)', 6.85);

Consider the compound CC(C)(C)C(=O)NC(NC(=O)C(C)(C)C)c1ccc([N+](=O)[O-])cc1 . State its measured hERG current change (%, negative = inhibition) at 10uM. 8.18

Consider the compound CCOC(=O)c1ccc(S(=O)(=O)NC2CCCCCCC2)n1C . State its measured hERG current change (%, negative = inhibition) at 10uM. -12.4

Consider the compound Cc1ccc(S(=O)(=O)CCC(=O)Nc2ccc3c(c2)OCO3)cc1 . State its measured hERG current change (%, negative = inhibition) at 10uM. -16

Consider the compound CCn1ncc([C@@H]2C[C@H]3CN(Cc4ccccc4C)C(=O)[C@]34CCCN24)c1C . State its measured hERG current change (%, negative = inhibition) at 10uM. 17.7

---

# TARGET: human ether-à-go-go-related gene (hERG) potassium channel (human);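 note: peak tail current of the secondary pulse compared with the same well before compound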
# TEST_NAME: primary screen, population patch clamp on CHO cells stably expressing hERG; higher = less effect of the substance
Out of some 310,000 compounds screened, about 14,000 (4.5%) showed an effect of 50% or more. The effect is printed as a negative number. The sample holds strong results, similar compounds and a random draw of the others, so the mix is not that of the screen.
# hERG current change (%, negative = inhibition) at 10uM annotations
Respond with the bare value in %.

# count of solved cases: 6
INSERT INTO results (compound, reading) VALUES
  ('Cc1cc(C(F)(F)F)n2ncc(-c3cccc(Br)c3)c2n1', 22.6),
  ('O=C(NNC(=S)NC(=O)c1ccccc1[N+](=O)[O-])c1ccccc1Cl', 6.38),
  ('c1ccc2oc(-c3[nH]ncc3CN3CCC(N4CCSCC4)CC3)cc2c1', -61.9),
  ('CCOC(=O)c1c(NC(=O)c2cccs2)sc(C)c1CC', 2.45),
  ('CCCn1nnc(NC(=O)COc2ccc(C3CCCCC3)cc2)n1', -31.1),
  ('O=C(CCC(=O)NC1CCN(Cc2ccccc2)CC1)NCc1ccco1', -1.88);

Supply hERG current change (%, negative = inhibition) at 10uM measured with human ether-à-go-go-related gene (hERG) potassium channel (human) for COc1cccc(CN2C(=O)CCC2(C)C(=O)NC2CCCCCC2)c1 (centres unmarked) . -11.7

Supply hERG current change (%, negative = inhibition) at 10uM measured with human ether-à-go-go-related gene (hERG) potassium channel (human) for CC1(C)CC(NC(=O)c2ccc(-c3ccc([N+](=O)[O-])cc3)o2)CC(C)(C)N1 . -49

---

# TARGET: human ether-à-go-go-related gene (hERG) potassium channel (human);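 note: peak tail current of the secondary pulse compared with the same well before compound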
# TEST_NAME: primary screen, population patch clamp on CHO cells stably expressing hERG; higher = less effect of the substance
Hit rate of the full screen: of about 310,000 compounds, about 14,000 (4.5%) showed an effect of 50% or more. Effects have a minus sign here. What follows is part of a selection rich in strong results, with near analogues and random picks from the rest.
Please use fulfilled whenever hERG current change (%, negative = inhibition) at 10uM is not below -30%, and not fulfilled whenever it is.

Take a look at these entries with their results.
INSERT INTO measurements (compound, group) VALUES
  ('COCC1CCCN(Cc2cn(-c3ccccc3)nc2-c2ccc3c(c2)OCO3)C1 (stereo not shown)', 'not fulfilled'),
  ('Cc1ccc(NC(=O)C2CC2c2ccccc2)cc1 (stereo not shown)', 'fulfilled'),
  ('COc1ccc(Cl)cc1NC(=S)N1CCC(c2ccc(C)cc2)C1 (stereo not shown)', 'fulfilled'),
  ('Cc1ccccc1N(CC(=O)NCCSC1CCCCC1)S(=O)(=O)c1ccccc1', 'fulfilled');

In plain terms: is recorded hERG current change (%, negative = inhibition) at 10uM at least -30% for c1ccc(-n2cc(CN3CCCC3)c(-c3ccc4c(c3)OCO4)n2)cc1 ? not fulfilled

In plain terms: is recorded hERG current change (%, negative = inhibition) at 10uM at least -30% for CC(=O)NCC1CCCN(Cc2cn(-c3ccccc3)nc2-c2ccc3c(c2)OCO3)C1 (stereo not shown) ? not fulfilled

In plain terms: is recorded hERG current change (%, negative = inhibition) at 10uM at least -30% for c1ccc(-n2cc(CN3CCC(N4CCOCC4)CC3)c(-c3ccc4c(c3)OCO4)n2)cc1 ? not fulfilled

In plain terms: is recorded hERG current change (%, negative = inhibition) at 10uM at least -30% for COCC1CCCCN1Cc1cn(-c2ccccc2)nc1-c1ccc2c(c1)OCO2 (stereo not shown) ? not fulfilled

In plain terms: is recorded hERG current change (%, negative = inhibition) at 10uM at least -30% for CCCc1nc(SCC(=O)N2c3ccccc3CC2C)c2c(C)c(C)sc2n1 (stereo not shown) ? fulfilled

In plain terms: is recorded hERG current change (%, negative = inhibition) at 10uM at least -30% for COC(=O)C1CCN(Cc2cn(-c3ccccc3)nc2-c2ccc3c(c2)OCO3)CC1 ? not fulfilled

---

# TARGET: human ether-à-go-go-related gene (hERG) potassium channel (human);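 note: peak tail current of the secondary pulse compared with the same well before compound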
# TEST_NAME: primary screen, population patch clamp on CHO cells stably expressing hERG; higher = less effect of the substance
The whole screen tested about 310,000 compounds, of which about 14,000 (4.5%) showed an effect of 50% or more. Effects have a minus sign here. The sample as a whole holds a higher share of strong results than the screen did.
MEASURE: hERG current change (%, negative = inhibition) at 10uM (%)
Respond with the bare value in %.

# count of solved cases: 6
INSERT INTO assay_data (compound, reading) VALUES
  ('Br.CCn1c(=N)n(CC(=O)C23CC4CC(CC(C4)C2)C3)c2ccccc21', -32.3),
  ('Br.CCn1c(=N)n(CC(=O)C(C)(C)C)c2ccccc21', -21.1),
  ('O=C1OC2(c3ccccc3)C3CCCC2C13', 11.1),
  ('Br.C=CCn1c(=N)n(CC(=O)c2ccc(Br)s2)c2ccccc21', -58.6),
  ('O=[N+]([O-])c1cccc(/C=N/n2c(C3CCCCC3)n[nH]c2=S)c1', 11.9),
  ('O=C([O-])/C=C1\CCCc2ccccc2C1O.[Na+] (stereo not shown)', 18.4);

Consider the compound CCOC(=O)C1C(c2ccc(Cl)cc2)NC(=S)NC1(O)C(F)(F)F (stereo not shown) . State its measured hERG current change (%, negative = inhibition) at 10uM. 16.7

Consider the compound Cc1ccc(NC(=O)CCSc2nnc(C)o2)cc1 . State its measured hERG current change (%, negative = inhibition) at 10uM. 2.48

Consider the compound Cc1ccc(S(=O)(=O)NNC(=O)C(=O)NNS(=O)(=O)c2ccc(C)cc2)cc1 . State its measured hERG current change (%, negative = inhibition) at 10uM. -1.99

Consider the compound Br.CCN(CC)CCn1c(=N)n(CC(=O)c2ccc(C)cc2)c2ccccc21 . State its measured hERG current change (%, negative = inhibition) at 10uM. -40.8

Consider the compound O=C(NCCCNC(=O)c1cnccn1)c1ccc(Cl)c(Cl)c1 . State its measured hERG current change (%, negative = inhibition) at 10uM. -15.6

Consider the compound Br.CCn1c(=N)n(CC(=O)c2ccc(Br)s2)c2ccccc21 . State its measured hERG current change (%, negative = inhibition) at 10uM. -69.3

Consider the compound Br.CCCCn1c(=N)n(CC(=O)C(C)(C)C)c2ccccc21 . State its measured hERG current change (%, negative = inhibition) at 10uM. -55

---

# TARGET: human ether-à-go-go-related gene (hERG) potassium channel (human);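 note: peak tail current of the secondary pulse compared with the same well before compound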
# TEST_NAME: primary screen, population patch clamp on CHO cells stably expressing hERG; higher = less effect of the substance
In all, about 310,000 compounds went through this assay and about 14,000 (4.5%) showed an effect of 50% or more. Effects have a minus sign here. This excerpt belongs to a sample that is enriched for strong results.
# hERG current change (%, negative = inhibition) at 10uM annotations
Respond with the bare value in %.

INSERT INTO measurements (compound, target, reading) VALUES
  ('O=C(Nc1cc(Cl)ccc1N1CCOCC1)c1cccnc1Cl', 'human ether-à-go-go-related gene (hERG) potassium channel (human)', 1.8);

Lab note: next compound to report on.
Consider the compound CCN1CC2C3CCC(C)(O3)C2C1 (stereo not drawn) . State its measured hERG current change (%, negative = inhibition) at 10uM. -73.1
